- assaySystem: BaF3-ETV6-NTRK2 (Homo sapiens)
- Construct: fused on or other part: P41212 (Transcription factor ETV6)
- Sequence (Q16620 538-822 limits assumed): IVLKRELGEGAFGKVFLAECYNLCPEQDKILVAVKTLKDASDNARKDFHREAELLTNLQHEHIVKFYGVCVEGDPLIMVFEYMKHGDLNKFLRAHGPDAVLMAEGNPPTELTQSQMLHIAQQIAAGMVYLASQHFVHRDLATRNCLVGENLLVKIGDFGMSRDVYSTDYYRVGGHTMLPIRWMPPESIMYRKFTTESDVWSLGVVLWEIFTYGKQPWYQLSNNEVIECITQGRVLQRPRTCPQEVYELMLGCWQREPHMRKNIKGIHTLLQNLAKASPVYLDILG
- assayMethodText: Cell proliferation inhibition (CCK-8), BaF3-ETV6-NTRK2 stable strain
- experimentalConditions: BaF3-ETV6-NTRK2, 72 hours
- Method: […] Cell proliferation inhibition activity study: the cells in the logarithmic growth phase were seeded into 96-well plates at 8000-12000 cells/well, and inhibitors at different concentrations (0-10 μM) were added the next day, and incubation was continued for 72 hours; then 10 μL of CCK-8 reagent was added to each well, and the incubation was continued for 1-3 hours; and then use a super microplate reader to measure their absorbance values at 450 nm and 650 nm. […]
pIC50: −log10 of the molar value.
Mark false (0) for pIC50 values under 6, and true (1) for everything at or above.

Sample answers from the record:
- Fc1ccc(Cc2ccc3[nH]nc(C#Cc4ccccn4)c3c2)cc1F: false (0)
- Fc1ccccc1Cc1ccc2[nH]nc(/C=C/c3ccccn3)c2c1: false (0)

Attention now shifts to the item below.
Query: For this molecule, is measured pIC50 6 or higher? Fc1cc(F)cc(Sc2ccc3[nH]nc(/C=C/c4ccccn4)c3c2)c1
Reply: true (1)

* * *

- assaySystem: BaF3-ETV6-NTRK3 (Homo sapiens, UniProt Q16288)
- Construct: fused on or other part: P41212 (Transcription factor ETV6)
- Sequence (Q16288 whole entry, the tested form may be a part): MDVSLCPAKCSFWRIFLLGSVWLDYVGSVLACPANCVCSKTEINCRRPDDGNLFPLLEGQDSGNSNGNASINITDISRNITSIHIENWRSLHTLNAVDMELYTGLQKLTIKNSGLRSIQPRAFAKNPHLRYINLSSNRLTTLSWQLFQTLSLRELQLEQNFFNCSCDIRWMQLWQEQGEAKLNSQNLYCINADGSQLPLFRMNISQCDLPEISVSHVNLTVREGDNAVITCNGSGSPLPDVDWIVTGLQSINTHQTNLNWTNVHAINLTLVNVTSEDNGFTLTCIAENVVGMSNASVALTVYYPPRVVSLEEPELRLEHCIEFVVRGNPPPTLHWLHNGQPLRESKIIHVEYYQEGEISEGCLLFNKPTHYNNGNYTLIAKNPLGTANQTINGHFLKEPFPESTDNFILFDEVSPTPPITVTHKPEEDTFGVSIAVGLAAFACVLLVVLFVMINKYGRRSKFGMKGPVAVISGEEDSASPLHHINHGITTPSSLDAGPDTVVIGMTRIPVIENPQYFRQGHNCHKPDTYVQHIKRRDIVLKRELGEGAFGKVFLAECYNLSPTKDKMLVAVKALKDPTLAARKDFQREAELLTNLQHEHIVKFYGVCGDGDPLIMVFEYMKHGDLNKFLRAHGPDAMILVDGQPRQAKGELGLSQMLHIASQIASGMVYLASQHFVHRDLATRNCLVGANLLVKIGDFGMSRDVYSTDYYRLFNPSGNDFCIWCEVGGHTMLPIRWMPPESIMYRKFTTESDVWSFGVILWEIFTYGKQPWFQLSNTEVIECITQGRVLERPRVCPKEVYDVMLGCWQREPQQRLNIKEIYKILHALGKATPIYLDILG
- assayMethodText: Cell proliferation inhibition (CCK-8), BaF3-ETV6-NTRK3 stable strain
- experimentalConditions: BaF3-ETV6-NTRK3, 72 hours
pIC50: −log10 of the molar value.
Mark F for pIC50 values under 6, and T for everything at or above.

Sample answers from the record:
- O=C(/C=C/c1n[nH]c2ccc(NCc3cc(F)cc(F)c3)cc12)N1CC[C@H](O)C1: T
- C(#Cc1n[nH]c2ccc(Cc3ccccc3)cc12)c1ccccn1: F
- O=S(=O)(Nc1ccc2[nH]nc(/C=C/c3ccccn3)c2c1)c1cccc(F)c1: T
- O=S(=O)(Nc1ccc2[nH]nc(/C=C/c3ccccn3)c2c1)c1cncc(F)c1: T
- Fc1cc(F)cc(Cc2ccc3[nH]nc(C#Cc4ccccn4)c3c2)c1: T

Query: For this compound, is measured pIC50 6 or higher? Cc1ccccc1/C=C/c1n[nH]c2ccc(Cc3cc(F)cc(F)c3)cc12
Reply: T

Query: For this compound, is measured pIC50 6 or higher? Fc1cccc(CNc2ccc3[nH]nc(/C=C/c4ccccn4)c3c2)c1
Reply: T

Query: For this compound, is measured pIC50 6 or higher? COc1cccc(Cc2ccc3[nH]nc(C#Cc4ccccn4)c3c2)c1 [DYX-135Q]
Reply: F

* * *

- assaySystem: BaF3-CD74-NTRK1 (Homo sapiens, UniProt P04629)
- Construct: fused on or other part: P04233 (HLA class II histocompatibility antigen gamma chain)
- Sequence (P04629 510-796 limits assumed): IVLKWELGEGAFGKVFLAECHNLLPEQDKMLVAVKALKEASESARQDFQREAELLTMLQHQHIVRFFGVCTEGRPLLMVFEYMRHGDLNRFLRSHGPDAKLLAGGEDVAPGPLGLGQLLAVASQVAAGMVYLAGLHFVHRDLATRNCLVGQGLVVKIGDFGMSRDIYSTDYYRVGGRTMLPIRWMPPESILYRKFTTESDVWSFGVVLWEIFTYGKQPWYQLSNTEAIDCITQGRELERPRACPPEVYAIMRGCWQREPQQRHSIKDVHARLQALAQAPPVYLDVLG
- assayMethodText: Cell proliferation inhibition (CCK-8), BaF3-CD74-NTRK1 stable strain
- experimentalConditions: BaF3-CD74-NTRK1, 72 hours
# maps each entry to its IC50
Field format: number, assumed nM, no unit text.

* CC(C)(C)NC(=O)/C=C/c1n[nH]c2ccc(NCc3cc(F)cc(F)c3)cc12 [DYX-230] | 682
* Fc1cccc(F)c1Cc1ccc2[nH]nc(C#Cc3ccccn3)c2c1 [DYX-071] | 7730
* CN1CCN(C(=O)/C=C/c2n[nH]c3ccc(NCc4cc(F)cc(F)c4)cc23)CC1 [DYX-226] | 48.7

Query: Given the entry CCn1cc(/C=C/c2n[nH]c3ccc(N[C@H](C)c4cc(F)cc(F)c4)cc23)cn1 [DYX-349] , report its measured IC50.
Reply: 7.4

Query: Given the entry Fc1cc(F)cc(Cc2ccc3[nH]nc(/C=C/c4ccncc4)c3c2)c1 [DYX-215] , report its measured IC50.
Reply: 147

Query: Given the entry Fc1ccc(Cc2ccc3[nH]nc(/C=C/c4ccccn4)c3c2)cc1F [DYX-059] , report its measured IC50.
Reply: 7940

Query: Given the entry C[C@@H](Nc1cc2c(/C=C/c3ccccn3)n[nH]c2cn1)c1cc(F)cc(F)c1 [DYX-340] , report its measured IC50.
Reply: 18.7

Query: Given the entry C(=C\c1n[nH]c2ccc(Cc3ccccc3)cc12)/c1ccccn1 [DYX-048] , report its measured IC50.
Reply: 803

Query: Given the entry CNC(=O)/C=C/c1n[nH]c2ccc(NCc3cc(F)cc(F)c3)cc12 [DYX-235] , report its measured IC50.
Reply: 20

Query: Given the entry C(#Cc1n[nH]c2ccc(Cc3ccccc3)cc12)c1ccccn1 [DYX-014] , report its measured IC50.
Reply: 8310

* * *

Notes on IC50 obtained with TRKB (Homo sapiens, UniProt Q16620).
Sequence (Q16620 32-822): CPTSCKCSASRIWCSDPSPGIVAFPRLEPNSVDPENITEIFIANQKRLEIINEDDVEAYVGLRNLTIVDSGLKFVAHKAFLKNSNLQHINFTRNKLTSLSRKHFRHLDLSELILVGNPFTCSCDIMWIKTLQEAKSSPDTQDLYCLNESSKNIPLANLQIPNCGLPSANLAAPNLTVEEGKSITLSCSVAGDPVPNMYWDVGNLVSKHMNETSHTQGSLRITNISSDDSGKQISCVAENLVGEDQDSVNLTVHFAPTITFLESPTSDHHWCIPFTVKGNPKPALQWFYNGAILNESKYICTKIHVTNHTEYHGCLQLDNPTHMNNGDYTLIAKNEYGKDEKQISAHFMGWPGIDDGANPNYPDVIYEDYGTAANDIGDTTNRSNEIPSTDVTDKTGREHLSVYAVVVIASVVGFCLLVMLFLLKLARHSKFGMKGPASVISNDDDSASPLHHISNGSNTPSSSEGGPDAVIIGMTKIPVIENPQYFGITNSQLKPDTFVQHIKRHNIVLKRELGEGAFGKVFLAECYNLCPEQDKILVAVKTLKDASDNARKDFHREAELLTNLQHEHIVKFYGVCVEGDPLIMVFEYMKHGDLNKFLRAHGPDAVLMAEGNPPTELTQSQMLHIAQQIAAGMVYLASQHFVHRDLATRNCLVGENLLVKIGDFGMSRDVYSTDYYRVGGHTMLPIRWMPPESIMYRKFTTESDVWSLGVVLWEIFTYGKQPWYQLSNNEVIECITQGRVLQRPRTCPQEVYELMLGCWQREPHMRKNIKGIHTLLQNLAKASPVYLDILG
Field format: number, assumed nM, no unit text.

Example entries begin here.
- Fc1cc(F)cc(OCc2ccc3[nH]nc(/C=C/c4ccccn4)c3c2)c1 [DYX-176]: 21.4
- Clc1cccc(Cc2ccc3[nH]nc(C#Cc4ccccn4)c3c2)c1 [DYX-134Q]: 124
- O=S(=O)(c1cc(F)cc(F)c1)c1ccc2[nH]nc(/C=C/c3ccccn3)c2c1 [DYX-114]: 7
- Clc1cccc(Cc2ccc3[nH]nc(/C=C/c4ccccn4)c3c2)c1 [DYX-134X]: 211
- O=C(Nc1ccc2[nH]nc(/C=C/c3ccccn3)c2c1)c1cc(F)cc(F)c1 [DYX-164]: 741

Consider the additional compound presented here.
Query: So what IC50 did Fc1cccc(F)c1Cc1ccc2[nH]nc(/C=C/c3ccccn3)c2c1 [DYX-081] get with TRKB (Homo sapiens, UniProt Q16620)?
Reply: 170

* * *

- assaySystem: UniProtKB Q16288
readoutKind: IC50 (nM)
Field format: number, assumed nM, no unit text.

Example entries begin here.
* Fc1cc(F)cc(Cc2ccc3[nH]nc(/C=C/c4ccccc4F)c3c2)c1 [DYX-10] | 18.8
* Fc1cc(F)cc(Sc2ccc3[nH]nc(/C=C/c4ccccn4)c3c2)c1 [DYX-090] | 35.7
* Fc1ccc(Cc2ccc3[nH]nc(/C=C/c4ccccn4)c3c2)cc1 [DYX-042] | 114

Query: So what IC50 did Fc1cc(F)cc(Nc2ccc3[nH]nc(C#Cc4ccccn4)c3c2)c1 [DYX-129] get with UniProtKB Q16288?
Reply: 575

* * *

# maps each entry to its pIC50
- assaySystem: BaF3-ETV6-NTRK3 (Homo sapiens, UniProt Q16288)
- Construct: fused on or other part: P41212 (Transcription factor ETV6)
- assayMethodText: Cell proliferation inhibition (CCK-8), BaF3-ETV6-NTRK3 stable strain
- experimentalConditions: BaF3-ETV6-NTRK3, 72 hours
Interpret pIC50 as the negative base-10 log of the concentration measured in mol/L.

• Fc1cc(Cc2ccc3[nH]nc(/C=C/c4ccccn4)c3c2)cc(F)c1F = 5.48
• Fc1cc(Cl)cc(CNc2ccc3[nH]nc(/C=C/c4ccccn4)c3c2)c1 = 7.39
• Fc1cccc(Cc2ccc3[nH]nc(C#Cc4ccccn4)c3c2)c1F = 5.66

Consider the additional compound presented here.
Query: Given the entry Fc1ccc(F)c(Cc2ccc3[nH]nc(C#Cc4ccccn4)c3c2)c1 , report its measured pIC50.
Reply: 6.10

* * *

- assaySystem: TRKB (Homo sapiens, UniProt Q16620)
# maps each entry to its IC50
Field format: number, assumed nM, no unit text.

Example entries begin here.
- Fc1cccc(Cc2ccc3[nH]nc(/C=C/c4ccccn4)c3c2)c1F: 67.8
- Cc1cccc(Cc2ccc3[nH]nc(C#Cc4ccccn4)c3c2)c1 [DYX-137Q]: 397
- COc1cccc(Cc2ccc3[nH]nc(/C=C/c4ccccn4)c3c2)c1 [DYX-135X]: 70.5

Query: So what IC50 did Cc1cccc(Cc2ccc3[nH]nc(/C=C/c4ccccn4)c3c2)c1 [DYX-137X] get with TRKB (Homo sapiens, UniProt Q16620)?
Reply: 80.8

Query: So what IC50 did FC(F)(F)c1cccc(Cc2ccc3[nH]nc(/C=C/c4ccccn4)c3c2)c1 [DYX-138X] get with TRKB (Homo sapiens, UniProt Q16620)?
Reply: 356

Query: So what IC50 did Fc1cc(F)cc(Cc2ccc3[nH]nc(/C=C/c4cnccn4)c3c2)c1 get with TRKB (Homo sapiens, UniProt Q16620)?
Reply: 10.9

* * *

# maps each entry to its pIC50
- assaySystem: BaF3-ETV6-NTRK3 (Homo sapiens, UniProt Q16288)
- Construct: fused on or other part: P41212 (Transcription factor ETV6)
- assayMethodText: Cell proliferation inhibition (CCK-8), BaF3-ETV6-NTRK3 stable strain
- experimentalConditions: BaF3-ETV6-NTRK3, 72 hours
Interpret pIC50 as the negative base-10 log of the concentration measured in mol/L.

* C[C@@H](Nc1cc2c(/C=C/c3ccccn3)n[nH]c2cn1)c1cc(F)cc(F)c1 | 7.17
* Fc1cccc(Cc2ccc3[nH]nc(/C=C/c4ccccn4)c3c2)c1F | 6.80
* CCNC(=O)/C=C/c1n[nH]c2ccc(NCc3cc(F)cc(F)c3)cc12 | 6.71
* Cc1cc(C)cc(Cc2ccc3[nH]nc(/C=C/c4ccccn4)c3c2)c1 | 5.69

Consider the additional compound presented here.
Query: Given the entry O=S(=O)(Nc1ccc2[nH]nc(/C=C/c3cccnc3)c2c1)c1cc(F)cc(F)c1 , report its measured pIC50.
Reply: 6.76

These data points were gathered from patent US20220281821A1.
